Origin of the recorded values: PubChem BioAssay (NCI)

system: SF-539 CNS; test: NCI-60 one-dose screen, 48 h (100 = growth as untreated, 0 = no growth, -100 = all killed); details: 10 µM unless noted
This is part of a sample that, as a whole, favours compounds with a hit. Of some 83,000 tested, about 20% had one in any assay.
Below, each of the molecules is paired with its reported growth value.
Form entry: value (%) — number only.

Below: 3 molecules and their reported growth.
In [3]: df
Out[3]:
                                   molecule  metric_name  unit  meas_value
0  COc1ccccc1C(=O)/C=C/c1cc2cccc(OC)c2[nH]c1=O       growth     %         -10
1  COc1ccc(/C=C(/C(=O)N2CCN(Cc3ccccc3)CC2)c2cc(OC)c(OC)c(OC)c2)cc1O       growth     %        55.7
2  NS(=O)(=O)c1ccc(-n2ncc(NC(=O)Nc3ccc(S(=O)(=O)Nc4nccs4)cc3)c2-c2ccccc2)cc1       growth     %        98.2

Summary for this molecule, `N#Cc1c(-c2ccc(Cl)cc2)cc(-c2cc3ccccc3o2)nc1SCC(=O)c1ccc(Cl)cc1` : growth is 112

Summary for this molecule, `C=CCn1c(CN2CCN(c3cc4c(cc3F)c(=O)c(C(=O)O)cn4C3CC3)CC2)n[nH]c1=S` : growth is 98.8

Summary for this molecule, O=C1CC23OC4ON=C(Br)C4C2C(O)c2ccccc2N13 (stereo unspecified) : growth is 107

Summary for this molecule, `Sc1cccc2cccnc12` : growth is 53.8

Summary for this molecule, `CC(C)(C)c1nc2c(s1)c1nc(N)ncc1c1ccc(NS(=O)(=O)c3c(F)cccc3F)c(F)c12` : growth is 79.7
